Test system: P. cepacia GIFU 518
protocol.notes: Antibacterial spectra, MIC
Format: cell-based
stated.conditions: Burkholderia cepacia, GIFU518
assay.endpoint: MIC (µg/mL)
Number only, in µg/mL; omit the unit.

CCNCC1CCN(c2c(F)cc3c(=O)c(C(=O)O)cn(C4CC4)c3c2OC)C1 (stereo not drawn) [Exp. 9] = 0.78
COc1c(N2CCC(CN)C2)c(F)cc2c(=O)c(C(=O)O)cn(C3CC3)c12 (stereo not drawn) [Exp. 7] = 0.78
COc1c(N2C[C@@H](N)[C@@H](C)C2)c(F)cc2c(=O)c(C(=O)O)cn(C3CC3)c12 (relative stereo) [Exp. 5] = 0.78
COc1c(N2C[C@@H](C)[C@H](N)C2)c(F)cc2c(=O)c(C(=O)O)cn(C3CC3)c12 (relative stereo) [Exp. 6] = 0.39
COc1c(N2CCNC(C)C2)c(F)cc2c(=O)c(C(=O)O)cn(C3CC3)c12 (stereo not drawn) [Exp. 3] = 1.56

Now examine the next entry.
So what does the record say about MIC for COc1c(N2CCC(N)C2)c(F)cc2c(=O)c(C(=O)O)cn(C3CC3)c12 (stereo not drawn) [Exp. 4] ?
0.39
